Entry source: patent US20190135908A1

Reported kon values are given for each entry in this list.
Target: T1, Human His-GDF15: HIS-tagged human GDF15 (human, UniProt Q99988 195-308)
T1 construct: not shown: His tag
T1 sequence: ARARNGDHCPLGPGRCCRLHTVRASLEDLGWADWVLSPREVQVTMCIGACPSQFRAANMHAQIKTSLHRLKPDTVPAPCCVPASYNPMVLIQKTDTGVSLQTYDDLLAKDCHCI
Experiment: Biacore SPR, IgG captured via anti-human Fc, GDF15 in flow
Please state the figure in M⁻¹ s⁻¹; there is no need to write the unit.

[
  {
    "Binder": "ABGDF15-C (antibody, human IgG1, lambda, V domains shown, captured through anti-human Fc in the Biacore assay) VH: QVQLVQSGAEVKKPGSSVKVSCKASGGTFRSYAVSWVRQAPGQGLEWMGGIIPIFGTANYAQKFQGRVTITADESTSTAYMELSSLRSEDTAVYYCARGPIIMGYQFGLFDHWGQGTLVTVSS VL: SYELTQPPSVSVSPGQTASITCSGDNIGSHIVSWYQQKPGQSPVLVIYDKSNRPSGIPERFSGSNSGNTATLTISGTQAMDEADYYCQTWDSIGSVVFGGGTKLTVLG",
    "Obs Value": "1.11e+07"
  }
]

# ---- query binder ----
Req: Please report the recorded kon for ABGDF15-B (antibody, human IgG1, lambda, V domains shown, captured through anti-human Fc in the Biacore assay) VH: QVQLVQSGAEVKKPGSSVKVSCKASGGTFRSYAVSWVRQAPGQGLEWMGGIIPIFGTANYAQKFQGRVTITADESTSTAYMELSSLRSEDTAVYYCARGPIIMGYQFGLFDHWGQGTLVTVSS VL: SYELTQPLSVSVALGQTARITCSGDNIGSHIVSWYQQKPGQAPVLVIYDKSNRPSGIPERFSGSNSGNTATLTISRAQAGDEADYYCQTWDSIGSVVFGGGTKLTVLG .
Resp: 8.8e+06
